Reference source: the MegaScale stability set (Tsuboyama et al. 2023)

B1: 2M8U (parent)
chain: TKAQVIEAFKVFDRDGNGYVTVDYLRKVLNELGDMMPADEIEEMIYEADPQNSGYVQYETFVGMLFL

# Variants of: B1
# methodSummary: folding stability dG (cDNA display proteolysis); higher = more stable
# measurementContext: PBS, room temperature
Please use label 1 whenever folding stability dG is not below 3 kcal/mol, and label 0 whenever it is.

orderedresidues=TKAQVIEAFKVFGRDGNGYVTVDYLRKVLNELGDMMPADEIEEMIYEADPQNSGYVQYETFVGMLFL assignedcategory="label 0"
orderedresidues=IKAQVIEAFKVFDRDGNGYVTVDYLRKVLNELGDMMPADEIEEMIYEADPQNSGYVQYETFVGMLFL assignedcategory="label 1"
orderedresidues=TKAQVISAFKVFDRDGNGYVTVDYLRKVLNELGDMMPADEIEEMIYEADPQNSGYVQYETFVGMLFL assignedcategory="label 0"
orderedresidues=TKAQVIEAFKVFDFDGNGYVTVDYLRKVLNELGDMMPADEIEEMIYEADPQNSGYVQYETFVGMLFL assignedcategory="label 1"
orderedresidues=RKAQVIEAFKVFDRDGNGYVTVDYLRKVLNELGDMMPADEIEEMIYEADPQNSGYVQYETFVGMLFL assignedcategory="label 1"

Tell me whether folding stability dG is at least 3 kcal/mol here: `TKAQVIEAFKVFDRDGNGYVTVDYLTKVLNELGDMMPADEIEEMIYEADPQNSGYVQYETFVGMLFL`
label 0
